Listing of entries alongside the reported rate of analog hydrolysis relative to cyclic AMP (α).
- Tested on: cyclic AMP phosphodiesterase
- ASSAY PROTOCOL: Resistance to phosphodiesterase (PDE) degradation
- Type: biochemical
- COND: rabbit kidney PDE, pH 7.5, 37°C
No unit in the answer, please; the number alone is enough.

{"COMPOUND": "O=P1(O)OC[C@H]2O[C@@H](n3cnc4c(SCc5ccccc5)ncnc43)[C@H](O)[C@@H]2O1 [Compound 7c]", "MEAS VALUE": 0.54}
{"COMPOUND": "CSc1ncnc2c1ncn2[C@@H]1O[C@@H]2COP(=O)(O)O[C@H]2[C@H]1O [Compound 7a]", "MEAS VALUE": 0.41}
{"COMPOUND": "CCSc1ncnc2c1ncn2[C@@H]1O[C@@H]2COP(=O)(O)O[C@H]2[C@H]1O [Compound 7b]", "MEAS VALUE": 0.57}

From here, focus on the item given below.
Prompt: Need rate of analog hydrolysis relative to cyclic AMP (α) of O=P1(O)OC[C@H]2O[C@@H](n3cnc4c(=S)[nH]cnc43)[C@H](O)[C@@H]2O1 [Compound 6, reference compound] , thanks.
Completion: 1.06
